compounds and their reported CC50 at 120 h
Assay: Cytotoxicity against human MT4 cells after 5 days by MTT assay
Type: cell-based

[
  {
    "compound.smiles": "NCCC[n+]1ccc(-c2ccncc2)cc1",
    "CC50 at 120 h": "> 346 µM"
  },
  {
    "compound.smiles": "CC[n+]1ccc(-c2cc[n+](Cc3cc(C[n+]4ccc(-c5cc[n+](CC)cc5)cc4)cc(C[n+]4ccc(-c5cc[n+](CC)cc5)cc4)c3)cc2)cc1",
    "CC50 at 120 h": "> 81.1 µM"
  },
  {
    "compound.smiles": "C[n+]1ccc(-c2cc[n+](CBr)cc2)cc1",
    "CC50 at 120 h": "5.1 µM"
  },
  {
    "compound.smiles": "BrCC[n+]1ccc(-c2ccncc2)cc1",
    "CC50 at 120 h": "79.2 µM"
  },
  {
    "compound.smiles": "BrCc1cc(CBr)cc(-[n+]2ccc(-c3cc[n+](-c4cc(CBr)cc(CBr)c4)cc3)cc2)c1",
    "CC50 at 120 h": "> 148 µM"
  },
  {
    "compound.smiles": "NCCC[n+]1ccc(-c2cc[n+](CCCN)cc2)cc1",
    "CC50 at 120 h": "3.3 µM"
  },
  {
    "compound.smiles": "C=C[n+]1ccc(-c2cc[n+](Cc3cc(C[n+]4ccc(-c5cc[n+](C=C)cc5)cc4)cc(C[n+]4ccc(-c5cc[n+](C=C)cc5)cc4)c3)cc2)cc1",
    "CC50 at 120 h": "33.4 µM"
  },
  {
    "compound.smiles": "OCC[n+]1ccc(-c2cc[n+](Cc3cc(C[n+]4ccc(-c5cc[n+](CCO)cc5)cc4)cc(C[n+]4ccc(-c5cc[n+](CCO)cc5)cc4)c3)cc2)cc1",
    "CC50 at 120 h": "> 104 µM"
  },
  {
    "compound.smiles": "CC[n+]1ccc(-c2cc[n+](Cc3ccc(CBr)cc3)cc2)cc1",
    "CC50 at 120 h": "0.9 µM"
  },
  {
    "compound.smiles": "C=C[n+]1ccc(-c2ccncc2)cc1",
    "CC50 at 120 h": "15.9 µM"
  }
]
